Give measured Residual trypsin activity (%) for each item. Keep answers brief.
Target: bovine trypsin (bovine, UniProt P00760 24-246)
Sequence (P00760 24-246): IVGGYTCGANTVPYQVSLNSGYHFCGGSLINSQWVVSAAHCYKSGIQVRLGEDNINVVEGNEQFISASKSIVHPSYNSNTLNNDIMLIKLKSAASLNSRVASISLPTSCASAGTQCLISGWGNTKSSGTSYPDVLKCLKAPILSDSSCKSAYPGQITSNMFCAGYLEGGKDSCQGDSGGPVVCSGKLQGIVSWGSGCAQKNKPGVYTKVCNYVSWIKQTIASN
Test: trypsin (50 nM) BApNA hydrolysis, OD405; peptide at 0.0098 µM
Bridge positions count the residues as written; N and C are the ends. Ends that are not written are not given here.
The answer is to be given in %; state only the numeric part.

Prompt: Give the value of Residual trypsin activity (%) reported for the following: CARATKSIPPICF (disulfide 1-12 (inferred), synthetic) [BT67]
Response: 102

Prompt: Specify measured Residual trypsin activity (%) for CGRATKSIPPICF (disulfide 1-12 (inferred), synthetic) [BT9] .
Response: 94.3

Prompt: // fetch Residual trypsin activity (%) given entry CGRAAKSIPPICF (disulfide 1-12 (inferred), synthetic) [BT26]
Response: 99.5

Prompt: For the binder CGTATKSIPPICF (disulfide 1-12 (inferred), synthetic) [BT25] , give its reported Residual trypsin activity (%).
Response: 99.6

Prompt: Kindly indicate its recorded Residual trypsin activity (%). Item: CPRATKSIPPICF (disulfide 1-12 (inferred), synthetic) [BT66]
Response: 106
